molecules and their reported melting point

Use these answered entries as a reference point.
CCCCCCCCc1ccc(C(=O)N[C@@H]2CCCNC2=O)cc1; 122 to 123 °C
CCCCc1ccc(C(=O)N[C@H]2CCCCNC2=O)cc1; 183 to 184 °C
CCCCc1ccc(C(=O)N[C@H]2CCCNC2=O)cc1; 117 to 118 °C

Task item: Given the entry O=C(N[C@H]1CCCNC1=O)c1ccc(F)c(F)c1 , report its measured melting point.
Reply: 202 to 204 °C

###

compounds and their reported melting point

Use these answered entries as a reference point.
O=C(N[C@H]1CCCNC1=O)c1ccc(C(F)(F)F)cc1; 212 to 214 °C
O=C(N[C@H]1CCCNC1=O)c1ccccc1F; 166 to 168 °C
O=C(N[C@H]1CCCNC1=O)c1cc(F)ccc1F; 140 to 142 °C
CCCCCCc1ccc(C(=O)N[C@H]2CCCNC2=O)cc1; 118 to 119 °C
O=C(N[C@H]1CCCNC1=O)c1cccc(F)c1; 164 to 166 °C
CCc1ccc(C(=O)N[C@H]2CCCNC2=O)cc1; 112 to 113 °C
O=C(N[C@H]1CCCNC1=O)c1ccccc1C(F)(F)F; 155 to 156 °C
CCCCCCc1ccc(C(=O)N[C@@H]2CCCNC2=O)cc1; 117 to 118 °C

Okay, next one:
Task item: Given the entry CC(C)(C)c1ccc(C(=O)N[C@H]2CCCCNC2=O)cc1 , report its measured melting point.
Reply: 204 to 205 °C
